# System: Streptococcus
# ASSAY METHOD TEXT: GAS UMAA2166 growth inhibition – luminescence, BacTiterGlo, counter-screen for streptokinase expression inhibitor project, dose response (AID 1915);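 also: potency for reduction of bacterial viability or growth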
# Format: functional, organism-based
Calls of active or inactive are those of the source. Rule as the data show it: actives have a measured EC50 and inactives only a lower limit.
ENDPOINT: EC50

COC(=O)c1cnc(Oc2ccc(NC(=O)NC(=O)c3c(F)cccc3Cl)cc2)cc1C(F)(F)F | > 150 µM (not active)

Measured EC50 of c1ccc(OCc2nc3c4c(ncn3n2)-c2ccccc2CC42CCCC2)cc1 : > 150 µM (not active)

Measured EC50 of c1ccc(-c2nc(C3CCCCC3)c3sccc3n2)cc1 : 15.5 µM (active)

Measured EC50 of Cc1nn(-c2ccccc2)c(Cl)c1C1C(C#N)=C(N)OC2=C1C(=O)CC(C)(C)C2 (configuration not stated) : 16.1 µM (active)

Measured EC50 of CCc1c(C2(O)CCCCC2)[nH]c2c(C(=O)OC)cc(Cl)cc12 : 5.96 µM (active)

Measured EC50 of Cc1ccc(-c2cc(-c3ccccc3Cl)[nH]n2)c(O)c1 : 13.6 µM (active)

Measured EC50 of CCn1c(-c2ccccc2)cnc1S : > 150 µM (not active)
